- assay remarks: Ratio of unbound brain to plasma concentration in C57BL/6 mouse at 3 mg/kg, po or 0.5 mg/kg, iv administered as cassette dose
- Assay type: ADME, organism-based
- run conditions: brain and plasma, read-out: K(p,uu,brain)
endpoint name: Kp uu
The answer should be a number; do not append a unit.

**Q:** Return Kp uu (reported value) for this compound: Cc1cc(C#N)ccc1-c1cc(N)cc2ncnn12
**A:** 0.39

**Q:** Return Kp uu (reported value) for this compound: Cc1cc(C#N)ccc1-c1cccc2ncnn12
**A:** 1.59

**Q:** Return Kp uu (reported value) for this compound: CC(=O)Nc1cc(-c2ccc(C#N)cc2C)n2ncnc2c1
**A:** 0.02

**Q:** Return Kp uu (reported value) for this compound: N#Cc1ccc(-c2cccc3ncnn23)cc1
**A:** 1.11

###

- assay remarks: Permeability of the compound after 5 hrs by PAMPA
- Format: physicochemical
- run conditions: read-out: permeability
endpoint name: Papp at 5 h (×10⁻⁶ cm/s)
Give your result in ×10⁻⁶ cm/s as a bare value.

**Q:** Return Papp at 5 h (reported value) for this compound: Cc1cc(C#N)ccc1-c1cc(N)cc2ncnn12
**A:** 5.9

**Q:** Return Papp at 5 h (reported value) for this compound: CC(=O)Nc1cc(-c2ccc(C#N)cc2C)n2ncnc2c1
**A:** 2.9

**Q:** Return Papp at 5 h (reported value) for this compound: Cc1cc(C#N)ccc1-c1cccc2ncnn12
**A:** 40.9

**Q:** Return Papp at 5 h (reported value) for this compound: N#Cc1ccc(-c2cccc3ncnn23)cc1
**A:** 24.6

###

- assay remarks: Oral bioavailability in C57BL/6 mouse at 3 mg/kg administered as cassette dose
- Format: ADME, organism-based
- run conditions: in vivo
Provide the reported bioavailability of each item.
Give your result in % as a bare value.

**Q:** Return bioavailability (reported value) for this compound: N#Cc1ccc(-c2cccc3ncnn23)cc1
**A:** 40

**Q:** Return bioavailability (reported value) for this compound: Cc1cc(C#N)ccc1-c1cc(N)cc2ncnn12
**A:** 39

**Q:** Return bioavailability (reported value) for this compound: CC(=O)Nc1cc(-c2ccc(C#N)cc2C)n2ncnc2c1
**A:** 100

**Q:** Return bioavailability (reported value) for this compound: Cc1cc(C#N)ccc1-c1cccc2ncnn12
**A:** 100

###

- assay remarks: Ratio of drug level in C57BL/6 mouse brain to plasma at 3 mg/kg, po or 0.5 mg/kg, iv administered as cassette dose
- Format: ADME, organism-based
- run conditions: brain and plasma, read-out: BPR
Provide the reported Kp of each item.

**Q:** Return Kp (reported value) for this compound: CC(=O)Nc1cc(-c2ccc(C#N)cc2C)n2ncnc2c1
**A:** 0.03

**Q:** Return Kp (reported value) for this compound: Cc1cc(C#N)ccc1-c1cc(N)cc2ncnn12
**A:** 0.21

**Q:** Return Kp (reported value) for this compound: Cc1cc(C#N)ccc1-c1cccc2ncnn12
**A:** 0.88

**Q:** Return Kp (reported value) for this compound: N#Cc1ccc(-c2cccc3ncnn23)cc1
**A:** 0.95

###

Provide the reported clearance of each item.
- assay remarks: Clearance in C57BL/6 mouse at 0.5 mg/kg, iv administered as cassette dose
- Assay type: ADME, organism-based
- run conditions: in vivo
Give your result in mL/min/kg as a bare value.

**Q:** Return clearance (reported value) for this compound: Cc1cc(C#N)ccc1-c1cccc2ncnn12
**A:** 31.6

**Q:** Return clearance (reported value) for this compound: Cc1cc(C#N)ccc1-c1cc(N)cc2ncnn12
**A:** 0.48

**Q:** Return clearance (reported value) for this compound: N#Cc1ccc(-c2cccc3ncnn23)cc1
**A:** 108

**Q:** Return clearance (reported value) for this compound: CC(=O)Nc1cc(-c2ccc(C#N)cc2C)n2ncnc2c1
**A:** 17.5

Entry source: ChEMBL document CHEMBL4014353
